assay.conditions: 343.15 K; 101.33 kPa; Liquid; Capillary tube (Ostwald / Ubbelohde) method
measurement.type: viscosity (mPa·s)

(1) CCCC[n+]1ccn(C)c1.O=S(=O)([O-])C(F)(F)C(F)C(F)(F)F (stereo not given)
(2) CCCCCCCCCCCCCC[P+](CCCCCC)(CCCCCC)CCCCCC.O=S(=O)([O-])C(F)(F)C(F)OC(F)(F)C(F)(F)F
# query: argmin of viscosity over 1 and 2 Choose, then provide that item's label.
1

----------
assay.conditions: 353.15 K; 101.33 kPa; Liquid; Capillary tube (Ostwald / Ubbelohde) method
measurement.type: viscosity (mPa·s)

(1) CCCCCCCCCCCCCC[P+](CCCC)(CCCC)CCCC.O=S(=O)([O-])C(F)(F)C(F)C(F)(F)F
(2) CCCCn1cc[n+](C)c1.O=S(=O)([O-])C(F)(F)C(F)OC(F)(F)F (stereo not given)
# query: argmin of viscosity over 1 and 2 Choose, then provide that item's label.
2

(1) CCCCn1cc[n+](C)c1.O=S(=O)([O-])C(F)(F)C(F)OC(F)(F)C(F)(F)F (stereo not given)
(2) CCCCCCCCCCCCCC[P+](CCCCCC)(CCCCCC)CCCCCC.O=S(=O)([O-])C(F)(F)C(F)OC(F)(F)C(F)(F)F
Exercise: compare 1 and 2 ; which one has the greater viscosity? Choose, then provide that item's label.
2

----------
assay.conditions: 283.15 K; 101.33 kPa; Liquid; Capillary tube (Ostwald / Ubbelohde) method
measurement.type: viscosity (mPa·s)

- molecule: "CCCC[n+]1ccn(C)c1.O=S(=O)([O-])C(F)(F)C(F)C(F)(F)F (stereo not given)"
  viscosity / mPa·s: 853

(I) CCCCCCCCCCCCCC[P+](CCCC)(CCCC)CCCC.O=S(=O)([O-])C(F)(F)C(F)C(F)(F)F
(II) CCCCn1cc[n+](C)c1.O=S(=O)([O-])C(F)(F)C(F)OC(F)(F)F (stereo not given)
# query: argmin of viscosity over I and II Choose, then provide that item's label.
II

----------
assay.conditions: 313.15 K; 101.33 kPa; Liquid; Capillary tube (Ostwald / Ubbelohde) method
measurement.type: viscosity (mPa·s)

// worked examples, viscosity included
- compound: "CCCCn1cc[n+](C)c1.O=S(=O)([O-])C(F)(F)C(F)OC(F)(F)F (stereo not given)"
  viscosity (mPa·s): 93
- compound: "CCCCn1cc[n+](C)c1.O=S(=O)([O-])C(F)(F)C(F)OC(F)(F)C(F)(F)F (stereo not given)"
  viscosity (mPa·s): 119

(P) CCCCCCCCCCCCCC[P+](CCCCCC)(CCCCCC)CCCCCC.O=S(=O)([O-])C(F)(F)C(F)OC(F)(F)C(F)(F)F
(Q) CCCC[n+]1ccn(C)c1.O=S(=O)([O-])C(F)(F)C(F)C(F)(F)F (stereo not given)
(R) CCCCCCCCCCCCCC[P+](CCCC)(CCCC)CCCC.O=S(=O)([O-])C(F)(F)C(F)C(F)(F)F
Order the records, beginning with the lowest viscosity and ending with the highest. Labels, requested order.
Q, P, R
(Q: 108 mPa·s, P: 191 mPa·s, R: 289 mPa·s)

----------
assay.conditions: 373.15 K; 101.33 kPa; Liquid; Capillary tube (Ostwald / Ubbelohde) method
measurement.type: viscosity (mPa·s)

// worked examples, viscosity included
- molecule: "CCCCCCCCCCCCCC[P+](CCCC)(CCCC)CCCC.O=S(=O)([O-])C(F)(F)C(F)C(F)(F)F"
  readout.unit: "mPa·s"
  viscosity: 22.6
- molecule: "CCCC[n+]1ccn(C)c1.O=S(=O)([O-])C(F)(F)C(F)C(F)(F)F (stereo not given)"
  readout.unit: "mPa·s"
  viscosity: 12.5
- molecule: "CCCCn1cc[n+](C)c1.O=S(=O)([O-])C(F)(F)C(F)OC(F)(F)C(F)(F)F (stereo not given)"
  readout.unit: "mPa·s"
  viscosity: 13.5

(a) CCCCn1cc[n+](C)c1.O=S(=O)([O-])C(F)(F)C(F)OC(F)(F)F (stereo not given)
(b) CCCCCCCCCCCCCC[P+](CCCCCC)(CCCCCC)CCCCCC.O=S(=O)([O-])C(F)(F)C(F)OC(F)(F)C(F)(F)F
# query: argmin of viscosity over a and b Choose, then provide that item's label.
a
(a: 11.9 mPa·s, b: 19.3 mPa·s)
